Target: first-generation H1 LAH construct H1frThrST (Influenza A virus (H1))
Assay: ELISA, supernate
Kindly state OD for each of the entries shown.
Give bare numbers, in OD.

[[record]]
binder = "mAb 2K11 (antibody, V domains shown) VH: EVQLVESGGGLVQPGGSLRLSCVASTFSLINYWMTWVRQAPGKGLEWVANIKQDGFEKYYVDSVKGRFTISRDNAKNSLYLQMNSLRVEDTAVYYCARQGSYADTYFYHYGMDVWGQGTTVTVS VL: QSALTQPPSVSGAPGQRVTISCTGSSSNIGAGYDAYWYQQLPGTAPKLLIYGNSNRLSGVPDRFSASKSGTSASLAITGLQAEDEADYYCQSYDSSLSIFGGGTKLTVLR"
parameter_measured = "OD"
measurement = 0.079

[[record]]
binder = "mAb 2O10 (antibody, V domains shown) VH: EVQLVESGGGLVQPGGSLRLSCAASGFTFNSYWMTWVRQAPGKGLEWVANINQDGSEKFFVDSVKGRFTISRDNAKTSLYLQMNSLRVEDTAVYYCAREGAPYDTYYYYYAMDVWGQGTTVTVS VL: QSVLTQPPSVSGAPGQRVTISCTGTSSNIGAGYGVHWYQQLPGAAPKLLVYGNSNRPSGVPDRFSGSKSGTSASLAITGLQAEDEADYYCQSYDISLSGSNVFGTGTKVTVLG"
parameter_measured = "OD"
measurement = 0.072

[[record]]
binder = "mAb 4A10 (antibody, V domains shown) VH: EVQLVESGGGLVQPGGSLRLSCAASGFSFSSYWMTWVRQAPGKGLEWVANIKQYGSEKYYVDSVKGRFTISRDNAKNSLYLQMNSLRDDDTAVYYCARMGSYLDTYYYHYGMDVWGQGTTVTVS VL: QSVLTQPPSLSGAPGQRVTISCTGSSSNIGADYDVYWYQHLPGTAPKLLMYGDGYRPSGVPDRFSGSKSGTSASLAITGLQAEDEADYYCQSYDSSLSRRVVFGGGTKLTVLG"
parameter_measured = "OD"
measurement = 0.069


Here is the next item to consider.
Please report the measured OD for mAb 5J8 (antibody, V domains shown) VH: EVQLVESGPGLVKPSDILSLTCAVSGYSISSNYYWGWIRQPPGKGLEWIGSIYHSGSTYYKPSLESRLGISVDTSKNQFSLKLSFVSAADTAVYYCARHVRSGYPDTAYYFDKWGQGTLVTVS VL: SYVLTQPPSVSVAPGETARISCGGNNIGTKVLHWYQQTPGQAPVLVVYDDSDRPSGIPERFSGSNSGNTATLTISRVEVGDEADYYCQVWDISTDQAVFGGGTKLTVLG
0.076
